reported-endpoint: melting point

- N#Cc1cc(Oc2ccc(NC(=O)Nc3cc4ccccc4cn3)c(F)c2)ccn1: 218 to 220 °C
- Cc1ccc2cc(NC(=O)Nc3ccc(Oc4ccnc(C#N)c4)cc3)ccc2n1: 245.5 °C
- N#Cc1cc(Oc2ccc(NC(=O)Nc3ccc4c(c3)C(F)(F)OC(F)(F)O4)c(F)c2)ccn1: 169 to 171 °C
- CSc1cc(Oc2ccnc(C#N)c2)ccc1NC(=O)Nc1ccc2c(c1)C(F)(F)OC(F)(F)O2: 183 to 185 °C
- N#Cc1cc(Oc2ccc(NC(=O)Nc3cc4ccccc4cn3)cc2)ccn1: 208 to 212 °C
- CC(C)(C)c1ccnc(NC(=O)Nc2ccc(Oc3ccnc(C#N)c3)cc2)c1: 216 to 217 °C
- N#Cc1cc(Oc2ccc(NC(=O)Nc3cc(C(F)(F)F)ccn3)c(C(F)(F)F)c2)ccn1: 209 to 210.5 °C
- N#Cc1cc(Oc2ccc(NC(=O)Nc3cc(C(F)(F)F)ccn3)cc2)ccn1: 202 °C
- N#Cc1cc(Oc2ccc(NC(=O)Nc3ccc4c(c3)C(F)(F)OC(F)(F)O4)c(C(F)(F)F)c2)ccn1: 220 to 221 °C
- CS(=O)(=O)c1cc(Oc2ccnc(C#N)c2)ccc1NC(=O)Nc1ccc2c(c1)C(F)(F)OC(F)(F)O2: 229 to 230 °C

In the following, a different molecule is considered.
### Prompt Consider the molecule N#Cc1cc(Oc2ccc(NC(=O)Nc3ccc4c(c3)OC(F)(F)O4)cc2)ccn1 and give its measured melting point.
### Response 199 to 200 °C

----------
Examples of compounds with documented melting point follow.

Guide cases for melting point, answers given:
- N#Cc1cc(Oc2ccc(NC(=O)Nc3ccc4c(c3)C(F)(F)OC(F)(F)O4)cc2F)ccn1 [Entry 127]: 196 to 199.5 °C
- Cn1ncc2cc(NC(=O)Nc3ccc(Oc4ccnc(C#N)c4)cc3C(F)(F)F)ccc21 [Entry 165]: 239 to 240 °C

### Prompt For N#Cc1cc(Oc2ccc(NC(=O)Nc3ccc4c(c3)C(F)(F)OC(F)(F)O4)c(F)c2F)ccn1 [Entry 129] , what is its reported melting point?
### Response 181 to 182 °C

### Prompt Consider the compound shown here: N#Cc1cc(Oc2ccc(NC(=O)Nc3ccc4c(c3)OC(F)(F)O4)cc2F)ccn1 [Entry 113] What is its recorded melting point?
### Response 193.5 to 194.5 °C

### Prompt Data request, read-out melting point, for CCc1ccnc(NC(=O)Nc2ccc(Oc3ccnc(C#N)c3)cc2)c1 [Entry 153]
### Response 209 to 210 °C

### Prompt melting point for N#Cc1cc(Oc2ccc(NC(=O)Nc3ccnc(C(F)(F)F)c3)c(F)c2)ccn1 [Entry 142] ?
### Response 192 to 193 °C
